Recorded pEC50, one value per entry.
# measuredTarget: human beta-3-adrenergic receptor (Homo sapiens, UniProt P13945)
# Construct: stably express full-length human beta-3-adrenergic receptor; expressed in transfected cells; host or cells: Chinese hamster ovary (CHO) cells
# Sequence (P13945 whole entry): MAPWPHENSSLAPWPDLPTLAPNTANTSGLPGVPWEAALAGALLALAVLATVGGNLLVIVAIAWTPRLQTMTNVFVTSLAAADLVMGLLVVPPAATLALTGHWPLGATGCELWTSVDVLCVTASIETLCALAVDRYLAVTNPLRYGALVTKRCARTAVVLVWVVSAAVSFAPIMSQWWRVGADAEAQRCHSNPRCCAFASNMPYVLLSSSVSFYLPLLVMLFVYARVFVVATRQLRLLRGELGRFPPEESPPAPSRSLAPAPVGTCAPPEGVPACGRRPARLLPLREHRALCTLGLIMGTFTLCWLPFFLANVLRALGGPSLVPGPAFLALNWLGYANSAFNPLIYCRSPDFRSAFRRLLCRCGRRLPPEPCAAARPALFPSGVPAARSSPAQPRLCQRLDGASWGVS
# testMethodNotes: cAMP production (beta-3 agonist activity) in CHO cells stably expressing human beta-3-adrenergic receptor, cAMP SPA
# Assay type: cell-based
# studyConditions: CHO cells expressing full-length human beta-3-adrenergic receptor, 30 min incubation, 10 μM to 3 nM, read-out: Beta-3 Agonistic Activity: Compounds with EC50 values ≦1 μM
pEC50: −log10 of the molar value.

For orientation, consider the following solved cases.
compound="CN(C)CC(=O)NS(=O)(=O)c1cccc(-c2ccc3c(c2)CC[C@H](CNC[C@H](O)c2cccnc2)O3)c1 [Example 304]" valueobserved="≥ 6.00"
compound="Nc1ccc(-c2ccc3c(c2)CC[C@H](CNC[C@H](O)c2cccnc2)O3)nc1 [Example 317]" valueobserved="≥ 6.00"
compound="COC(=O)c1ccc(-c2ccc3c(c2)CC[C@H](CNC[C@H](O)c2ccc(N)nc2)O3)cc1 [Example 381]" valueobserved="≥ 6.00"
compound="CC(C)(C)C(=O)NS(=O)(=O)c1ccc(-c2ccc3c(c2)CC[C@H](CNC[C@H](O)c2cccnc2)O3)cc1 [Example 292]" valueobserved="≥ 6.00"
compound="O=C1CCc2cc(NS(=O)(=O)c3ccc(-c4ccc5c(c4)CC[C@H](CNC[C@H](O)c4cccnc4)O5)cc3)ccc21 [Example 258]" valueobserved="≥ 6.00"
compound="COc1cc(C)nc(NS(=O)(=O)c2cc(-c3ccc4c(c3)CC[C@H](CNC[C@H](O)c3cccnc3)O4)ccc2OC)n1 [Example 271]" valueobserved="≥ 6.00"

Now for the compound whose pEC50 we want.
Reported pEC50 for O=C(Nc1cccc(C(F)(F)F)c1)NS(=O)(=O)c1cccc(-c2ccc3c(c2)CC[C@H](CNC[C@H](O)c2cccnc2)O3)c1 [Example 337] : what is it? ≥ 6.00
